Item-by-item account of pKd
- tested-target: T1, HTRA3, P83110
- T1 sequence (P83110 354-453, limits assumed, looked up): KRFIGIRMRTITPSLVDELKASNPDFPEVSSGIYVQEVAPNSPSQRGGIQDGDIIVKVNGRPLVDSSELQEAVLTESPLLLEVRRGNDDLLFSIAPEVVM
- experimental-protocol: holdup assay
- Parameters: key: below the threshold = too weak to quantify, mostly under pKd 3.1 to 4
- stated-conditions: plain residues with an end cap or a label only (N-terminal biotin on a linker: ado-ado)
Respond numerically, and do not add a unit to the figure.

# pKd (binder: FNSYSLTGYV [CLDN2, P57739] ) is 4.6

# pKd (binder: CLREWCDAFL [BANF1, O75531] ) is 4.17
